Test system: Wolbachia pipientis
run description: Anti-Wolbachia Cell-Based Screen
Type: functional
Parameters: scale not given: in the data most compounds retested in dose-response had high values
conditions: 5 µM
In all, about 48,000 compounds went through this assay and about 13,000 (27%) showed an effect of 50% or more. This is one part of the list.
Task for the reader: assign each of the following compounds its reported Percent Effect.
One number for each entry, in %.

Illustrative cases are given below, each with its answer.
compound=CCCSc1ncccc1C(=O)NCc1ccc(N(C)C)cc1 reading=112.3
compound=CSc1ncccc1C(=O)NCc1ccc(N(C)C)cc1 reading=175.4
compound=CCCSc1ncccc1C(=O)NCc1ccc(S(N)(=O)=O)cc1 reading=120.7
compound="CC(C)(C)[S+]([O-])CCNC(=O)c1cccc2ncccc12 (stereo unspecified)" reading=-2.962
compound=Cc1ccc(C(=O)NCc2ccc(N(C)C)cc2)cn1 reading=-15.59

Consider now this further compound.
Percent Effect measured on `CSc1ncccc1C(=O)NCc1ccc(CS(=O)(=O)NC(C)C)cc1` = 2.17

###

Task for the reader: assign each of the following molecules its reported Percent Effect.
Tested on: Wolbachia pipientis
run description: Anti-Wolbachia Cell-Based Screen
Format: functional
Design: scale not given: in the data most compounds retested in dose-response had high values
conditions: 5 µM
In all, about 48,000 compounds went through this assay and about 13,000 (27%) showed an effect of 50% or more. This is one part of the list.
Please answer in the form of a number followed by its unit of measurement.

molecule=CN(CCCc1ccccc1)C(=O)c1cn2c(n1)CNCC2 reading=13.8%
molecule="CCN1C(=O)C(c2ccccc2)CC12CCN(c1ncccn1)CC2 (stereo unspecified)" reading=-1.132%
molecule="Cc1nc(N(C)C)nc2c1COCC21CCN(C(=O)NCC(C)C)C1 (stereo unspecified)" reading=114.7%

Give one value of Percent Effect per listed molecule.
1. CC(=O)c1cccc(NC(=O)N(CCO)C2CCc3ccccc32)c1 (stereo unspecified)
2. O=C1NC(c2ccccc2)=N[C@@]12CC[C@@H]1CN(Cc3ccoc3)C[C@@H]12
3. COC(=O)CC(c1ccccc1)c1oc(C)cc(=O)c1O (stereo unspecified)
4. Cc1nn(C)c(C)c1CC(=O)N1CCCC(n2ccnc2C)C1 (stereo unspecified)
5. COCC(=O)N1CCC2(COCc3c(C)nc(N(C)C)nc32)C1 (stereo unspecified)
6. COCCN1CCC2(COCc3c(C)nc(N4CCOCC4)nc32)C1.O=C(O)C(F)(F)F (stereo unspecified)

6.805%
-8.675%
9.59%
103.8%
100.6%
8.185%

Give one value of Percent Effect per listed molecule.
1. CCN(c1ccccc1)S(=O)(=O)c1cc(C(=O)O)cc2c1CCC2
2. Cc1nc(N(C)C)nc2c1COCC21CCN(C(=O)C2CC2)C1 (stereo unspecified)

["1.015%", "112%"]

###

Task for the reader: assign each of the following compounds its reported Percent Effect.
System: Wolbachia pipientis
run description: Anti-Wolbachia Cell-Based Screen
Type: functional
Design: scale not given: in the data most compounds retested in dose-response had high values
conditions: 5 µM
Hit rate of the full screen: of about 48,000 compounds, about 13,000 (27%) showed an effect of 50% or more. This is one part of the list.
Give bare numbers, in %.

Illustrative cases are given below, each with its answer.
compound=CN(CC(F)(F)F)C(=O)CNC(=O)Cc1cccc(O)c1 experimental_readout="Percent Effect" reading=-3.923
compound=CC(C)C1CCN(C(=O)NCC(=O)N(C)CC(F)(F)F)CC1 experimental_readout="Percent Effect" reading=101.1
compound="Cc1cnn(CCCNC(=O)N2CCCCC(N3CCCC3)C2)c1 (stereo unspecified)" experimental_readout="Percent Effect" reading=-6.749
compound=O=C(Cc1ccn[nH]1)Nc1cncc(Br)c1O experimental_readout="Percent Effect" reading=-6.696
compound="CN(CC(F)(F)F)C(=O)CNC(=O)N1CCC(N2CCCC2)C1 (stereo unspecified)" experimental_readout="Percent Effect" reading=94.48

Percent Effect measured on `CN(CC(F)(F)F)C(=O)CNC(=O)Cc1ccccc1O` = -0.134

###

Tested on: Wolbachia pipientis
run description: Anti-Wolbachia Cell-Based Screen
Format: functional
Parameters: scale not given: in the data most compounds retested in dose-response had high values
conditions: 5 µM
Among all 48,000 compounds or so, about 13,000 (27%) showed an effect of 50% or more. This is one part of the list.
experimental readout: Percent Effect (%)
Numbers only, in %.

molecule="O=C(O)C1c2nc[nH]c2CCN1Cc1ccccc1-c1ccccc1 (stereo unspecified)" endpoint_unit=% reading=-6.694
molecule=Cc1nc(CNC(=O)NCCC2=CCCC2)oc1C endpoint_unit=% reading=-10.48
molecule=CC(C)CN1CCC2(C=C(C(=O)N(C)C)c3ccccc32)CC1.O=C(O)C(F)(F)F endpoint_unit=% reading=90.84

Give one value of Percent Effect per listed molecule.
1. Cc1noc(C)c1NC(=O)NC1CCN(C(=O)OC(C)(C)C)CC1
2. CC(=O)N1CCC(NC2(Cc3cc(CC(C)C)on3)COC2)CC1
3. Cc1cc(C)cc(C(C)NCc2nnc(C)s2)c1 (stereo unspecified)

1: -1.211; 2: 8.31; 3: -26.09

###

Tested on: Wolbachia pipientis
run description: Anti-Wolbachia Cell-Based Screen
Assay type: functional
Set-up: scale not given: in the data most compounds retested in dose-response had high values
conditions: 5 µM
Screen size: about 48,000 compounds; about 13,000 (27%) showed an effect of 50% or more. The list shows a part of the results.
Task for the reader: assign each of the following compounds its reported Percent Effect.
Answers are plain numbers, in %.

compound=CC(=O)N1CCCN(C(=O)c2oc(Br)cc2C)CC1 reading=-21.77
compound="O=C(NCC(O)c1cccc(F)c1)C1CCN(C(=O)C2CCC2)CC1 (centres undefined)" reading=-0.7968
compound="CCc1ccc(C2c3nc[nH]c3CCN2Cc2nccn2CC)nc1 (centres undefined)" reading=105

Give one value of Percent Effect per listed compound.
1. Cc1c(C2c3nc[nH]c3CCN2CCOCc2ccccc2)cnn1C (centres undefined)
2. CCn1ncnc1CN1CCc2[nH]cnc2C1c1ccccn1 (centres undefined)
3. Cc1nc2oc(C(=O)N3CCOCC3)c(N)c2c2c1CCCC2
4. COCCn1ccnc1CN1CCc2[nH]cnc2C1c1cccc(O)c1 (centres undefined)
5. Cn1c(C(=O)N2CCOCC2)nc2c1CCN(c1ncccn1)C2
6. Cc1nnsc1CN1C[C@H]2CC[C@@H]1CN(Cc1ccccc1)C2
7. CCn1c(CN(C)C)nnc1C1CCN(Cc2ccc(Cl)c(F)c2)CC1

1: 5.205; 2: -9.23; 3: 117.9; 4: 85.01; 5: -2.522; 6: 2.749; 7: -16.98

###

System: Wolbachia pipientis
run description: Anti-Wolbachia Cell-Based Screen
Format: functional
Set-up: scale not given: in the data most compounds retested in dose-response had high values
conditions: 5 µM
Screen size: about 48,000 compounds; about 13,000 (27%) showed an effect of 50% or more. The list shows a part of the results.
Task for the reader: assign each of the following compounds its reported Percent Effect.
One number for each entry, in %.

Illustrative cases are given below, each with its answer.
compound=O=S1(=O)CCCN(Cc2ccccc2OCC(F)(F)F)CC1 system="Wolbachia pipientis" experimental_readout="Percent Effect" reading=7.623
compound=CC(C)(C)CC(=O)N1CC[C@H]2NC(=O)N(Cc3ccccc3)C(=O)[C@H]21 system="Wolbachia pipientis" experimental_readout="Percent Effect" reading=-1.242
compound=O=C(NCCC1=CCCCC1)c1ccc(-n2cccc2)nc1 system="Wolbachia pipientis" experimental_readout="Percent Effect" reading=122.4
compound=O=C(NCCC1=CCCCC1)c1cc(-c2ccc(O)cc2)n[nH]1 system="Wolbachia pipientis" experimental_readout="Percent Effect" reading=12.27
compound=CN1CCN(CC2CC2)C(=O)C12CCN(c1nccs1)CC2 system="Wolbachia pipientis" experimental_readout="Percent Effect" reading=-15.71
compound="COC1CCN(C(=O)CC(C)(C)C)CC(=O)N(C)c2ccccc21 (stereo unspecified)" system="Wolbachia pipientis" experimental_readout="Percent Effect" reading=108.9
compound=Cc1ccc(NC(=O)CN(C)C(=O)c2ccc(-n3cccc3)nc2)nc1 system="Wolbachia pipientis" experimental_readout="Percent Effect" reading=-2.8
compound=CC(=O)N[C@@H](CC(C)C)C(=O)N1CCC(n2cc(C(C)(C)N)nn2)CC1 system="Wolbachia pipientis" experimental_readout="Percent Effect" reading=10.18

Give one value of Percent Effect per listed compound.
1. CS(=O)(=O)N1C[C@@H](C(=O)Nc2cnccn2)C[C@H]2OCC[C@H]21
2. CCOc1ncccc1C(=O)NCC(O)c1ccc(F)c(F)c1 (stereo unspecified)

-10.64
-43.97

Percent Effect measured on `O=C(NCCC1=CCCCC1)c1n[nH]c2c1CCCC2` = 109.4

###

Test system: Wolbachia pipientis
run description: Anti-Wolbachia Cell-Based Screen
Format: functional
Parameters: scale not given: in the data most compounds retested in dose-response had high values
conditions: 5 µM
In all, about 48,000 compounds went through this assay and about 13,000 (27%) showed an effect of 50% or more. Some of the results follow.
Task for the reader: assign each of the following compounds its reported Percent Effect.
Please answer in the form of a number followed by its unit of measurement.

compound="CCc1nccn1C1CCCN(C(=O)c2csc(C3CC3)n2)C1 (centres undefined)" experimental_readout="Percent Effect" reading=96.06%

Give one value of Percent Effect per listed compound.
1. CC1N(CC2CC2)C(=O)COC12CCN(C(=O)c1cccs1)CC2 (centres undefined)
2. Cc1noc(C)c1-c1nc(C2CCCN(C(=O)C(C)C)C2)ccc1CO (centres undefined)

1: 8.45%; 2: 110.5%

Give one value of Percent Effect per listed compound.
1. Cc1ccc(C(=O)NCC(O)CN2CCCC2=O)cc1Cl (centres undefined)
2. CCc1nc2n(n1)CCCC2Nc1nc(C(C)C)ns1 (centres undefined)
3. CCc1nccn1C1CCCN(C(=O)c2cc[nH]n2)C1 (centres undefined)
4. CN(Cc1ccc(Cl)s1)C(=O)Nc1ccc(N(C)C)nc1
5. O=C(NCCc1nncn1C1CC1)C1SCCc2sccc21 (centres undefined)
6. O=C1CC2(CCCCN2C(=O)c2ccoc2)CN1Cc1ccccc1 (centres undefined)
7. Cn1ccc(C(=O)N2CCCCC23CC(=O)N(Cc2ccccc2)C3)n1 (centres undefined)

2.235%
-21.17%
5.506%
10.16%
-5.898%
-18.39%
-1.004%

Give one value of Percent Effect per listed compound.
1. CCc1nccn1C1CCCN(C(=O)c2cc(C3CC3)on2)C1 (centres undefined)
2. COC(C)C(=O)N(CC(N)=O)Cc1cccc(Oc2ccccc2)c1 (centres undefined)

1: 0.1203%; 2: 2.959%

Give one value of Percent Effect per listed compound.
1. O=C1CC2(CCCCN2C(=O)c2ccccc2)CN1CC1CC1 (centres undefined)
2. Cc1ccccc1-n1ccnc1S(=O)(=O)Cc1nsc(N(C)C)n1
3. COc1nc2c(cc1C(=O)NCCc1nc(C)c(C(=O)O)s1)CCC2
4. c1cn2c(n1)CNCC(COCC1CC1)C2 (centres undefined)
5. O=C(Cc1cn2ccsc2n1)N1CCCC(n2cncn2)C1 (centres undefined)
6. CCc1nccn1C1CCCN(C(=O)CCc2nc(C(C)C)no2)C1 (centres undefined)
7. CC(C)(C)Cc1nnc(NCc2cccc(C#N)c2)o1

["79.38%", "22.74%", "-5.377%", "-6.113%", "-11.33%", "1.838%", "-57.27%"]

Give one value of Percent Effect per listed compound.
1. COc1ccccc1CC(C)(C)NC(=O)CC(F)(F)F
2. O=C(O)C(F)(F)F.O=C1CC2(CCCCN2C(=O)c2ccncc2)CN1CC1CC1 (centres undefined)
3. CCOC(=O)N1CCN(c2nc(NC3CC3)c3ccccc3n2)CC1.Cl
4. O=C(CCC(=O)c1cccs1)NC1(C(=O)NCC2CC2)CCCC1
5. CCN1CCN(C(=O)C(C)SC)CC1 (centres undefined)

-8.852%
106.2%
12.46%
1.426%
-3.808%

The origin of these recorded values is ChEMBL document CHEMBL3988442.
